tested on: NCl-H460 human non-small-cell lung cancer cells; assay: Inhibition of cell proliferation, crystal violet staining; format: cell-based; details: Homo sapiens, 96 h; NCl-H460, 4 days incubation
Reported Endpoint: IC50 (nM)

• COc1cc2c(cc1OS(N)(=O)=O)CC[C@@H]1[C@@H]2CC[C@]2(C)C(=C(F)F)CC[C@@H]12 = 220
• COc1cc2c(cc1OS(N)(=O)=O)CC[C@@H]1[C@@H]2CC[C@]2(C)[C@@H](C(F)F)CC[C@@H]12 = 220
• COc1cc2c(cc1OS(N)(=O)=O)CC[C@@H]1[C@@H]2CC[C@]2(C)[C@@H](CO)CC[C@@H]12 = 180
• CCc1cc2c(cc1OS(N)(=O)=O)CC[C@@H]1[C@@H]2CC[C@]2(C)[C@@H](OC)CC[C@@H]12 = 180

Origin of measurements: patent US8492570B2
